Target: T1, recombinant human CD123-Fc (human, UniProt P26951 19-305)
T1 construct: not shown: Fc part of CD123-Fc
T1 sequence: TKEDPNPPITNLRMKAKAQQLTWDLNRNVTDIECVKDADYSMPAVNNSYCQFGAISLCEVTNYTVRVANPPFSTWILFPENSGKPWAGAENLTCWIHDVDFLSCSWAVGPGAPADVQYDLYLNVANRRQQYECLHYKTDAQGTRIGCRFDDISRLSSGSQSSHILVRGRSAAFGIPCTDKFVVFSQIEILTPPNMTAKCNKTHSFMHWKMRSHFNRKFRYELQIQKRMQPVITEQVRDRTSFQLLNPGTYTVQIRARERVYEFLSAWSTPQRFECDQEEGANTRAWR
Assay: phage ELISA, A450 target/A450 IgG1-Fc
reported.metric: ELISA_avg (ratio)
Note: unit ratio is implicit; provide only the numeric part.

Given SEQ ID NO 644 (designed binder) MGSWEEFFFRLEAIDDRLYALGGSEAELALFEEVIAYFEQDLQWYKGKGNPEVEALYVEAYAIQEELYAYRHN , state its recorded ELISA_avg.
3.2

Given SEQ ID NO 722 (designed binder) MGSWYEFENRLEAIEERLWALGGSEAELAAFEKEIAAFESELQAYKGKGNPEVEMLREEAAFIRDWLQAYRHN , state its recorded ELISA_avg.
6.1

Given SEQ ID NO 702 (designed binder) MGSWEEFYDRLGAIFARLHALGGSEAELAAFEKEIAAFESELQAYKGKGNPEVEDLRWYAADIRMILQAYRHN , state its recorded ELISA_avg.
3.9

Given SEQ ID NO 664 (designed binder) MGSWYEFESRLDAIVDRLWALGGSEAELAEFEYEIAKFEWELQDYKGKGNPEVEALNWEAGAIEFELYAYRHN , state its recorded ELISA_avg.
5.1

Given SEQ ID NO 706 (designed binder) MGSWYEFADRLWAIEDRLWALGGSEAELAAFEKEIAAFESELQAYKGKGNPEVEFLRYYAADIRWVLQAYRHN , state its recorded ELISA_avg.
4
